The reported numbers originate from ChEMBL document CHEMBL1201862.

- System: MDA-N
- method notes: NCI tumour cell line growth inhibition, 48 h
Calls of active or inactive are those of the source. No stated cut-off is given here; in the data, active = GI50 up to about 1.1 µM and inactive = higher.
measured attribute: GI50

1) NC(CC(O)(c1ccccc1)c1ccccc1)c1ccccc1S (stereo not drawn): 15.6 µM (inactive)
2) NCCCN(CCCCN(CCCN)Cc1ccc2ccccc2c1)Cc1ccc2ccccc2c1: 1.88 µM (inactive)

Request: What value of GI50 on MDA-N does C[C@]12C(=O)OC[C@H](c3ccccc3)N1C(=O)N(Cc1ccccc1)[C@@H]2CO have?
Result: > 100 µM (inactive)

---

- Tested on: OVCAR-8
- method notes: NCI tumour cell line growth inhibition, 48 h
Calls of active or inactive are those of the source. No stated cut-off is given here; in the data, active = GI50 up to about 1.1 µM and inactive = higher.
Select the matching outcome among TRUE for active, FALSE for inactive

1. Cc1ccc(C(C2C(=O)N(C)C(=O)N(C)C2=O)C(F)(F)C(=O)N(C)C)cc1 (configuration not stated): FALSE

Request: Record request — test call for CCCN1CN(C(C(=O)N[C@@H]2C(=O)N3C2SC(C)(C)C3C(=O)O)c2ccc(O)cc2)CSC1=S (some centres not stated)
Result: FALSE

Request: Hey, what did the test say about O=S(=O)(O)c1cc(/N=N/c2cc(S(=O)(=O)O)c3ccccc3c2O)ccc1/C=C/c1ccc(/N=N/c2cc(S(=O)(=O)O)c3ccccc3c2O)cc1S(=O)(=O)O ?
Result: FALSE

Request: Record lookup: outcome of this test for CCOC(=O)CCC(NC(=O)c1ccc(N2CCN(c3c(C)nc(N)nc3N)CC2)cc1)C(=O)OCC (configuration not stated) ?
Result: TRUE

Request: Assay result, entry Cc1cc(-c2nc3c(F)cccc3s2)ccc1N — outcome?
Result: FALSE

Request: Query: recorded result category for O=C(O)CCc1nc(-c2ccccc2)c(-c2ccccc2)o1 in this test
Result: FALSE

Request: Outcome? CCOC(=O)N1c2ccccc2N(C(=O)OCC)C1CC(=O)/C=C/c1ccccc1
Result: FALSE

Request: Query: recorded result category for CC(C)CC1C(=O)NCCC(NC(=O)C(N)Cc2ccc(O)cc2)C(=O)NC(Cc2ccccc2)C(=O)NC(Cc2ccccc2)NC1=O (configuration not stated) in this test
Result: FALSE

Request: Test call for this compound, please: COc1ccc(C2=NNC(=O)OC2c2ccccc2)cc1 (configuration not stated)
Result: FALSE

Request: Field: outcome | Entry: CN(C)CC/[N+]([O-])=C(/c1ccccc1)C12CC3CC(CC(C3)C1)C2
Result: FALSE

Request: Test call for this compound, please: CCCCN(CCCC)CC(C(=O)Nc1ccc([N+](=O)[O-])cc1[N+](=O)[O-])/C(C)=N\NC(=O)C[N+](C)(C)C (configuration not stated)
Result: FALSE

---

- System: COLO 205
- method notes: NCI tumour cell line growth inhibition, 48 h
Calls of active or inactive are those of the source. Cut-off read from the data, not from the text of the source: active = GI50 up to about 1.1 µM and inactive = higher.
measured attribute: GI50

1. COc1ccc(C2CC(c3cc4c(C)c(C(=O)c5ccccc5)oc4cc3O)=Nc3ccccc3S2)cc1OC (centres undefined): > 100 µM (inactive)
2. OC(c1cc2ccc(C(F)(F)F)cc2c2cc(C(F)(F)F)ccc12)C1CCCCN1 (centres undefined): 1.59 µM (inactive)

Request: Form: Entry = CCN(CC)C(=O)c1cccc2c(OC)ccc(OC)c12 | System = COLO 205 | GI50 = ____
Result: > 100 µM (inactive)

Request: Form field: GI50 recorded for CS(=O)(=O)c1ccc(C2=C(c3ccccc3)C(=O)OC2)cc1 [ROFECOXIB] with COLO 205 (enter value)
Result: > 100 µM (inactive)

Request: Tell me reported GI50 for c1ccc(NCn2cnc3ccccc32)cc1 , tested with COLO 205.
Result: > 100 µM (inactive)

Request: Give COLO 205 GI50 for CCOC(=O)/C(=C/c1ccc(C(=O)OC)cc1)N(CC)CC
Result: 70.1 µM (inactive)

Request: Form: Entry = O=C1NC(=O)C(C(CC(=O)c2ccc([N+](=O)[O-])cc2)c2ccccc2)C(=O)N1 (centres undefined) | System = COLO 205 | GI50 = ____
Result: > 100 µM (inactive)

Request: Request - read-out GI50 | tested on COLO 205 | molecule COc1ccccc1NC(=O)CC(=O)NNCC(=O)Nc1nc(-c2ccccc2)cs1
Result: > 100 µM (inactive)

Request: Record O=C(CC(C(=O)c1ccoc1)c1ccco1)c1ccco1 (centres undefined) : what is its GI50 with COLO 205?
Result: > 100 µM (inactive)

---

- System: SNB-75
- method notes: NCI tumour cell line growth inhibition, 48 h
Activity calls are given as the source filed them. Cut-off read from the data, not from the text of the source: active = GI50 up to about 1.1 µM and inactive = higher.
measured attribute: GI50

1. CCCCC(=O)Oc1ccc2c(C)cc(=O)oc2c1: > 100 µM (inactive)

Request: Could you tell me which GI50 is on file for CCOC(=O)NC(=O)c1cn(C2OC(CO)C(O)C2O)c(=O)[nH]c1=O (stereo not drawn) ?
Result: > 100 µM (inactive)

Request: Item COc1ccc(/C=C2\CCC/C(=C\c3ccc(O)c(CN4CCCCC4)c3)C2=O)cc1 has what recorded GI50?
Result: 12.6 µM (inactive)

---

- Tested on: M14
- method notes: NCI tumour cell line growth inhibition, 48 h
Activity calls are given as the source filed them. Cut-off read from the data, not from the text of the source: active = GI50 up to about 1.1 µM and inactive = higher.
measured attribute: GI50

// known answers, use as guide
1. NC(=O)C12C3C4C1C1C2C3C41C(N)=O (stereo not drawn): > 100 µM (inactive)
2. CCOC(=O)C(=Cc1cc(OC)ccc1OC)C(=O)OCC: 11.6 µM (inactive)

Request: Requested read-out GI50, target or system M14, entry N=C1N(S(=O)(=O)c2ccccc2)[C@@H](Cc2ccccc2)[C@H](c2ccccc2)C1(c1ccccc1)c1ccccc1
Result: > 100 µM (inactive)

---

- Test system: SF-295
- method notes: NCI tumour cell line growth inhibition, 48 h
Active and inactive are the calls of the source. Cut-off read from the data, not from the text of the source: active = GI50 up to about 1.1 µM and inactive = higher.
measured attribute: GI50

Request: Need GI50, item CS(C)(=O)=Nn1c(=O)n2n(c1=O)C1c3ccccc3C2c2ccccc21
Result: > 100 µM (inactive)

Request: Value lookup for GI50; key = CCCCNS(=O)(=O)c1ccc(-c2ccc3c(c2)-c2ccc(S(=O)(=O)NCCCC)cc2S3(=O)=O)cc1
Result: 15 µM (inactive)

Request: Bench note: what GI50 did CC(C)NCCC(O)c1cc2ccccc2o1 (stereo not given) show?
Result: > 100 µM (inactive)

Request: Item C1CC[N+]23CCCC[N+]2(C1)CCCC3 (stereo not given) has what recorded GI50?
Result: > 100 µM (inactive)

Request: Can you share its GI50? I mean this compound: Cc1cc(O)ccc1C1(c2ccc(F)cc2)OC(=O)c2ccccc21 (stereo not given)
Result: 3.48 µM (inactive)

---

- Test system: SF-295
- method notes: NCI tumour cell line growth inhibition, 48 h
Active and inactive are the calls of the source. Rule as the data show it: active = GI50 up to about 1.1 µM and inactive = higher.
// one of Y for active, N for inactive, no free text

Answered examples (4):
1) O=CNNC(=O)Nc1cccc2ccccc12: N
2) Nc1ncnc2c1N=CN(Oc1ccccc1)N2: N
3) Cc1cccc(Nc2cnc(N)nc2N)c1: N
4) O=C(CSSCC(=O)OCCS(=O)(=O)Nc1ccc(Br)cc1)OCCS(=O)(=O)Nc1ccc(Br)cc1: N

Here is another compound to look at.
Request: Hi team, can someone confirm the assay call for CC(C)CCCCCCCCCCCCC(=O)NCC(=O)NC1C(C)OC(Nc2[nH]cnc3ncnc2-3)C(O)C1O (configuration not stated) ?
Result: Y

---

- Test system: PC-3
- method notes: NCI tumour cell line growth inhibition, 48 h
Calls of active or inactive are those of the source. No stated cut-off is given here; in the data, active = GI50 up to about 1.1 µM and inactive = higher.
# Lookup of reported GI50 keyed by entry

Request: Which value of GI50 has been reported for NC(=O)C(NC=O)c1ccccc1 (stereo not drawn) in the records?
Result: > 100 µM (inactive)

Request: Find the recorded GI50 belonging to Cc1ccc(-c2cnc(NC3OC(COC(=O)c4ccccc4)C(OC(=O)c4ccccc4)C(OC(=O)c4ccccc4)C3OC(=O)c3ccccc3)s2)cc1 (stereo not drawn) and report it.
Result: > 100 µM (inactive)

Request: Any idea what GI50 was measured for N=C1N(S(=O)(=O)c2ccccc2)[C@@H](Cc2ccccc2)[C@H](c2ccccc2)C1(c1ccccc1)c1ccccc1 ?
Result: 9.62 µM (inactive)

Request: What value of measured GI50 is listed for O=C(O)c1cccc2c1/C(=N/Nc1ccccc1)CC2 ?
Result: > 100 µM (inactive)

---

- System: OVCAR-3
- method notes: NCI tumour cell line growth inhibition, 48 h
Active and inactive are the calls of the source. Rule as the data show it: active = GI50 up to about 1.1 µM and inactive = higher.
Output constraint: value belongs to active, inactive

Reference set, count: 5
1. CC1(C)C(=NNC(=S)NN)C(C)(C)C1=NNC(=S)NN: inactive
2. O=[As](O)(O)c1ccc(/N=N/c2ccc([As](=O)(O)O)cc2)cc1: inactive
3. COc1c(N2CCCCC2)c2c(=O)c3ccccc3oc2c2c3ccccc3n(C)c12: inactive
4. Nc1ccc(C(=O)/C=C/c2ccccc2O)cc1: inactive
5. c1ccc2c(OCCSCCCCCCCCCCSCCOc3cccc4ccccc34)cccc2c1: inactive

Request: Called result for COc1cccc(-c2cc(O)c3cc4c(cc3n2)OCO4)c1
Result: active

Request: Could you please tell me the result logged for OC(c1cc2ccc(C(F)(F)F)cc2c2cc(C(F)(F)F)ccc12)C1CCCCN1 (configuration not stated) in this assay?
Result: inactive
